Target: Cytochrome P450 1A2 (Homo sapiens) (UniProt P05177)
Sequence (P05177 whole entry, looked up): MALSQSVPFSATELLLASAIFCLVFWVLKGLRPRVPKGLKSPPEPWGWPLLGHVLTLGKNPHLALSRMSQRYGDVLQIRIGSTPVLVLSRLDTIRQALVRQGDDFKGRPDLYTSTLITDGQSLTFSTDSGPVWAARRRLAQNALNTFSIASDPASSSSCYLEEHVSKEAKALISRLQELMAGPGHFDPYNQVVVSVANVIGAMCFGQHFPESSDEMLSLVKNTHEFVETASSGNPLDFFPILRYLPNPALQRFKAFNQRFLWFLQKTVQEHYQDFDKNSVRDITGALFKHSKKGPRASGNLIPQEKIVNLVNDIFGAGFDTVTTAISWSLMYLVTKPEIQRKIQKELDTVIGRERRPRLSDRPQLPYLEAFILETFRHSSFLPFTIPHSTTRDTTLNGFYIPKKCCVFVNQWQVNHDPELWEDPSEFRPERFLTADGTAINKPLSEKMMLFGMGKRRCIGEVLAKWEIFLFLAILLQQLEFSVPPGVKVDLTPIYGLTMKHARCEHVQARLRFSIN
Assay: Cytochrome P450 Family 1 Subfamily A Member 2 (CYP1A2) small molecule antagonists: luciferase reporter qHTS assay (AID 1671199); note: nearly all actives have a fitted effect of over 50% in size
Settings: P450-Glo CYP1A2 enzyme, luciferin luminescence, 1 h; series mostly up to 53 µM
Results filed as inconclusive are left out. Calls of active or inactive are those of the source. Calls come from the whole dose curve; as a rule, active = well fitted inhibition curve with a large enough effect in the repeat runs; inconclusive = weak or mixed curves; inactive = no such curve, though single readings can be large or run the other way.
Answer with one of the outcomes active, inactive

O=C(Oc1cccc2cccnc12)c1ccccc1 = active

# outcome recorded in this test, key = "Cc1ccc(O)c2ncccc12" active

# outcome recorded in this test, key = "CN(C)[C@@H]1C(=O)C(C(N)=O)=C(O)[C@@]2(O)C(=O)C3=C(O)c4c(O)ccc(Cl)c4[C@@H](O)[C@H]3C[C@@H]12" inactive
